assay: Protein binding in human plasma; assay type: ADME, cell-free; conditions: read-out: PPB
experimentalEndpoint: fraction unbound

Ask: Provide measured fraction unbound value, entry: CC(=O)N1[C@@H]2CC[C@H]1C=C(c1cnc(NCc3ccc4c(c3)OCC4)c(C(=O)NC[C@H]3COc4ccccc4O3)c1)C2 (mixture of isomers)
Result: 0.01

====

molecular target: Growth hormone secretagogue receptor type 1 (Rattus norvegicus, UniProt O08725); experiment: Inverse agonist activity at rat ghrelin receptor expressed in HEK293 cells by NFAT-RE-luciferase reporter gene assay; format: cell-based
Sequence (O08725 whole entry): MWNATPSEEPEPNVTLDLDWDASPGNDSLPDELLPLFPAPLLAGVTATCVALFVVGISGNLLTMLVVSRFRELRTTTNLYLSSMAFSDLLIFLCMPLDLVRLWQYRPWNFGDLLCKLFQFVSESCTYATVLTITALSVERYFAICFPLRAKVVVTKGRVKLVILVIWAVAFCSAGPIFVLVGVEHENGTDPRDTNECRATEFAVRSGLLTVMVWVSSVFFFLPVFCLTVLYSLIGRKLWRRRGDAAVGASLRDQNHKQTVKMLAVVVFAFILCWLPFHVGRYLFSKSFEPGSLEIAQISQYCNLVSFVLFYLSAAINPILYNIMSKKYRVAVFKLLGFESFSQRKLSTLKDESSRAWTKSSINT
Would you kindly list IC50 for each of these molecules?
The reply should read as a number followed by its unit.

Ask: Provide measured IC50 value, entry: C[C@@H]1CN(c2cnc(NCc3ccc4c(c3)OCC4)c(C(=O)NC[C@H]3COc4ccccc4O3)c2)C[C@H](C)O1
Result: 350 nM

Ask: Provide measured IC50 value, entry: CC(=O)N1CC=C(c2cnc(NCc3ccc4c(c3)OCO4)c(C(=O)NC[C@H]3COc4ccccc4O3)c2)CC1
Result: 2500 nM

Ask: Provide measured IC50 value, entry: CC(C)N1[C@@H]2CC[C@H]1C=C(c1cnc(NCc3ccc4c(c3)OCC4)c(C(=O)NC[C@H]3COc4ccccc4O3)c1)C2 (mixture of isomers)
Result: 4.1 nM

Ask: Provide measured IC50 value, entry: CCCn1cc(-c2cnc(NCc3ccc4occc4c3)c(C(=O)NCC3COc4ccccc4O3)c2)cn1 (centres undefined)
Result: 720 nM

Ask: Provide measured IC50 value, entry: CCCn1cc(-c2cnc(NCc3ccc4c(c3)OCC4)c(C(=O)NCC3COc4ccccc4O3)c2)cn1 (racemic)
Result: 140 nM

Ask: Provide measured IC50 value, entry: CCCn1cc(-c2cnc(NCc3ccc4sccc4c3)c(C(=O)NCC3COc4ccccc4O3)c2)cn1 (racemic)
Result: 400 nM

Ask: Provide measured IC50 value, entry: CC(=O)N1[C@@H]2CC[C@H]1C=C(c1cnc(NCc3ccc4c(c3)OCC4)c(C(=O)NC[C@H]3COc4ccccc4O3)c1)C2 (mixture of isomers)
Result: 47 nM

Ask: Provide measured IC50 value, entry: CCCn1cc(-c2cnc(NCc3ccc4ncsc4c3)c(C(=O)NCC3COc4ccccc4O3)c2)cn1 (centres undefined)
Result: 900 nM

Ask: Provide measured IC50 value, entry: CCn1cc(-c2cnc(NCc3ccc4c(c3)OCO4)c(C(=O)NC[C@H]3COc4ccccc4O3)c2)cn1
Result: 110 nM

Ask: Provide measured IC50 value, entry: CCn1cc(-c2cnc(NCc3ccc4c(c3)OCO4)c(C(=O)NC[C@@H]3COc4ccccc4O3)c2)cn1
Result: 5500 nM

Ask: Provide measured IC50 value, entry: O=C(NC[C@H]1COc2ccccc2O1)c1cc(N2C[C@H]3CC[C@@H](C2)O3)cnc1NCc1ccc2c(c1)OCO2
Result: 560 nM

Ask: Provide measured IC50 value, entry: O=C(NC[C@H]1COc2ccccc2O1)c1cc(N2CCOCC2)cnc1NCc1ccc2c(c1)OCO2
Result: 2000 nM

Ask: Provide measured IC50 value, entry: O=C(NCC1COc2ccccc2O1)c1cc(-c2ccnc(Cl)c2)cnc1NCc1ccc2c(c1)OCC2 (racemic)
Result: 390 nM

Ask: Provide measured IC50 value, entry: CCCn1cc(-c2cnc(NCc3ccc4c(c3)OCO4)c(C(=O)NCC3COc4ccccc4O3)c2)cn1 (centres undefined)
Result: 170 nM

====

assay: Ratio of drug level in brain to plasma in mouse at 10 mg/kg, ip administered as single dose after 1 hr; type: ADME, organism-based; settings: brain and plasma, read-out: BPR
experimentalEndpoint: Kp at 1 h
Lab note: jot the number down without any unit.

Ask: Provide measured Kp at 1 h value, entry: CC(=O)N1[C@@H]2CC[C@H]1C=C(c1cnc(NCc3ccc4c(c3)OCC4)c(C(=O)NC[C@H]3COc4ccccc4O3)c1)C2 (mixture of isomers)
Result: 0.005

====

biological target: Growth hormone secretagogue receptor type 1 (Rattus norvegicus, UniProt O08725); assay: Inverse agonist activity at rat ghrelin receptor by inositol phosphate turnover assay; format: functional
experimentalEndpoint: pIC50
// pIC50: -log10(molar conc.)

Ask: Provide measured pIC50 value, entry: H-RPKPFQWFWLL-NH2
Result: 8.28

====

target: Neurotensin receptor type 2 (Homo sapiens) (UniProt O95665); assay: Inverse agonist activity at NTSR2 (unknown origin) expressed in HEK293 cells assessed as suppression of constitutive receptor activity by NFAT-RE-luciferase reporter gene assay; assay type: cell-based
Sequence (O95665 whole entry): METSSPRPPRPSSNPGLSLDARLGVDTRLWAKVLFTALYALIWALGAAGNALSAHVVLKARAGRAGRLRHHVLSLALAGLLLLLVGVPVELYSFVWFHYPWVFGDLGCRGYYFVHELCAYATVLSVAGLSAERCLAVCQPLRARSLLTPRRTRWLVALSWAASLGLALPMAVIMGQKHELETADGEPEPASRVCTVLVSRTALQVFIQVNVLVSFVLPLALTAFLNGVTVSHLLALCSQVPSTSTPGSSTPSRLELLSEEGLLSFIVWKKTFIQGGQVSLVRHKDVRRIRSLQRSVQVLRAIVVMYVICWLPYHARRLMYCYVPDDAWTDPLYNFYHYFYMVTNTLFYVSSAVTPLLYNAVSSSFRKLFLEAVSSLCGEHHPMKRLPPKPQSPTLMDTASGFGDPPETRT
Active and inactive are the calls of the source. No cut-off for these calls is given here.
experimentalEndpoint: Activity

Field: example entries. Status: answers known.
{"columns": ["compound", "Activity"],
 "data": [
  ["CC(C)N1[C@@H]2CC[C@H]1C=C(c1cnc(NCc3ccc4c(c3)OCC4)c(C(=O)NC[C@H]3COc4ccccc4O3)c1)C2 (mixture of isomers)", "inactive"],
  ["O=C(NCC1COc2ccccc2O1)c1cc(-c2ccnc(Cl)c2)cnc1NCc1ccc2c(c1)OCC2 (racemic)", "inactive"],
  ["CCn1cc(-c2cnc(NCc3ccc4c(c3)OCO4)c(C(=O)NC[C@H]3COc4ccccc4O3)c2)cn1", "inactive"],
  ["C[C@@H]1CN(c2cnc(NCc3ccc4c(c3)OCC4)c(C(=O)NC[C@H]3COc4ccccc4O3)c2)C[C@H](C)O1", "inactive"],
  ["CCCn1cc(-c2cnc(NCc3ccc4ncsc4c3)c(C(=O)NCC3COc4ccccc4O3)c2)cn1 (configuration not stated)", "inactive"]
]}

Ask: Provide measured Activity value, entry: O=C(NC[C@H]1COc2ccccc2O1)c1cc(N2C[C@H]3CC[C@@H](C2)O3)cnc1NCc1ccc2c(c1)OCO2
Result: inactive

Ask: Provide measured Activity value, entry: CCCn1cc(-c2cnc(NCc3ccc4c(c3)OCO4)c(C(=O)NCC3COc4ccccc4O3)c2)cn1 (configuration not stated)
Result: inactive

====

molecular target: Growth hormone secretagogue receptor type 1 (Homo sapiens, UniProt Q92847); assay: Binding affinity to ghrelin receptor (unknown origin)
Sequence (Q92847 whole entry): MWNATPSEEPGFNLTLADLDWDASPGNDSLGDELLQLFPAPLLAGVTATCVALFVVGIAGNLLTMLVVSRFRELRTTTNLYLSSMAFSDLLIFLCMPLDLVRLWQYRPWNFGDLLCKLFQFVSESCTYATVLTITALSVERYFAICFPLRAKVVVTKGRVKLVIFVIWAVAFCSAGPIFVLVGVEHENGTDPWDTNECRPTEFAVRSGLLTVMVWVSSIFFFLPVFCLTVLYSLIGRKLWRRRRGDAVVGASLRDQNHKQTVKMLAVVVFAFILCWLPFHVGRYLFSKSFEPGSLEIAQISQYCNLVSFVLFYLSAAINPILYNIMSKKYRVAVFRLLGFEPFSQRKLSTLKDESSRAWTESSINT
Would you kindly list pIC50 for each of these compounds?
// pIC50: -log10(molar conc.)

Ask: Provide measured pIC50 value, entry: CC(C)N1[C@@H]2CC[C@H]1C=C(c1cnc(NCc3ccc4c(c3)OCC4)c(C(=O)NC[C@H]3COc4ccccc4O3)c1)C2 (mixture of isomers)
Result: 9.64

Ask: Provide measured pIC50 value, entry: C[C@@H]1CN(c2cnc(NCc3ccc4c(c3)OCC4)c(C(=O)NC[C@H]3COc4ccccc4O3)c2)C[C@H](C)O1
Result: 8.14

Ask: Provide measured pIC50 value, entry: CCCn1cc(-c2cnc(NCc3ccc4ncsc4c3)c(C(=O)NCC3COc4ccccc4O3)c2)cn1 (stereo not drawn)
Result: 6.59

Ask: Provide measured pIC50 value, entry: CCn1cc(-c2cnc(NCc3ccc4c(c3)OCO4)c(C(=O)NC[C@H]3COc4ccccc4O3)c2)cn1
Result: 7.62

Ask: Provide measured pIC50 value, entry: O=C(NCC1COc2ccccc2O1)c1cc(-c2ccnc(Cl)c2)cnc1NCc1ccc2c(c1)OCC2 (racemic)
Result: 8.16

Ask: Provide measured pIC50 value, entry: CCCn1cc(-c2cnc(NCc3ccc4sccc4c3)c(C(=O)NCC3COc4ccccc4O3)c2)cn1 (racemic)
Result: 7.08

Ask: Provide measured pIC50 value, entry: O=C(NC[C@H]1COc2ccccc2O1)c1cc(N2CCOCC2)cnc1NCc1ccc2c(c1)OCO2
Result: 7.33

Ask: Provide measured pIC50 value, entry: CCCn1cc(-c2cnc(NCc3ccc4c(c3)OCO4)c(C(=O)NCC3COc4ccccc4O3)c2)cn1 (stereo not drawn)
Result: 7.44

====

test: Oral bioavailability in mouse at 10 mg/kg, administered as single dose; type: ADME, organism-based; settings: in vivo
experimentalEndpoint: bioavailability (%)
Field format: number, assumed %, no unit text.

Ask: Provide measured bioavailability value, entry: CC(=O)N1[C@@H]2CC[C@H]1C=C(c1cnc(NCc3ccc4c(c3)OCC4)c(C(=O)NC[C@H]3COc4ccccc4O3)c1)C2 (mixture of isomers)
Result: 0.64

====

test: Bioavailability in mouse at 10 mg/kg, sc administered as single dose; format: ADME, organism-based; settings: in vivo
experimentalEndpoint: bioavailability (%)
Field format: number, assumed %, no unit text.

Ask: Provide measured bioavailability value, entry: CC(=O)N1[C@@H]2CC[C@H]1C=C(c1cnc(NCc3ccc4c(c3)OCC4)c(C(=O)NC[C@H]3COc4ccccc4O3)c1)C2 (mixture of isomers)
Result: 99.1

====

test: Toxicity against HEK293 cells assessed as cell viability at 50 uM by alamar blue staining method; assay type: cell-based; settings: human, read-out: Activity
Would you kindly list viability at 50 µM for each of these compounds?
Field format: number, assumed %, no unit text.

Ask: Provide measured viability at 50 µM value, entry: CCCn1cc(-c2cnc(NCc3ccc4sccc4c3)c(C(=O)NCC3COc4ccccc4O3)c2)cn1 (racemic)
Result: 92

Ask: Provide measured viability at 50 µM value, entry: CCCn1cc(-c2cnc(NCc3ccc4c(c3)OCO4)c(C(=O)NCC3COc4ccccc4O3)c2)cn1 (configuration not stated)
Result: 69
